Quick note: these are MIC numbers for system: Escherichia coli NIHJ
One number for each entry, in µg/mL.

// each compound listed below needs its MIC
1. Cc1ccc2c(O)c(C(=O)NC(C(=O)N[C@@H]3C(=O)N4[C@@H]3SC(C)(C)[C@@H]4C(=O)O)c3cccc(N)c3)cnc2c1 (stereo partly shown)
2. CC1(C)SC2C(NC(=O)C(NC(=O)c3cnc4cccnc4c3O)c3ccc(O)c(O)c3)C(=O)N2C1C(=O)O (stereo not shown)
3. CC1(C)SC2C(NC(=O)C(NC(=O)c3cnc4ccc(N)nc4c3O)c3cccc(N)c3)C(=O)N2C1C(=O)O (stereo not shown)
4. CC1(C)S[C@@H]2[C@H](NC(=O)C(NC(=O)c3nc4ccccc4nc3O)c3cccc(N)c3)C(=O)N2[C@H]1C(=O)O (stereo partly shown)

6.25
0.78
0.78
3.13
